melting point by entry:

COMPOUND | VALUE TYPE | EXPERIMENTAL RESULT
CCN(CC)C(=O)CCc1nc(-c2cccc(C(F)(F)F)c2)nc2ccccc12 | melting point | 115 °C
COc1cc(Nc2c(C#N)cnc3cc(-c4ncccc4CN4CCOCC4)ccc23)c(Cl)cc1Cl | melting point | 151 to 154 °C
CS(=O)(=O)c1ccccc1C#N | melting point | 105 to 106 °C
COC(=O)c1c(C)nc2cccc(C)c2c1NCc1ccc(Br)cc1 | melting point | 150 °C
C=COCCONC(=O)c1cc(F)c(F)c(F)c1Nc1ccc(I)cc1Cl | melting point | 115 to 116 °C

Challenge: // fetch melting point given entry `CCCN1C(=O)C2(c3ccc([N+](=O)[O-])cc3)CC(c3ccc([N+](=O)[O-])cc3)(C2)C1=O`
Response given: 237 to 238 °C

Challenge: // fetch melting point given entry `COCCN(C)Cc1cc(C(=O)Nc2nc3c(OC)ccc(C4COCCOC4)c3s2)ccn1`
Response given: 100 to 107 °C
